The measured values listed here are drawn from the SangsterLogP compilation.

# experimental.setup: pH 5.0
property.label: logD
Number, no unit, nothing else.

Worked examples, 5 molecules total:
| molecule | logD |
| --- | --- |
| CCCCN1C(=O)c2ccc(C(=O)OCC(=O)N[C@H](C)C(C)C)cc2C1=O | 3.62 |
| CCOC(=O)c1c(N2C(=O)[C@@H]3CC(C)=C(C)C[C@H]3C2=O)sc(C)c1C | 4.56 |
| O=C(NCc1ccccc1)/C(=C/c1ccc(Cl)cc1)NC(=O)c1ccccc1 | 4.41 |
| CCOC(=O)c1c(NC(=O)[C@@H]2C[C@H]3CC[C@@H]2C3)sc(C(=O)N(CC)CC)c1C | 5.05 |
| COc1ccc([C@@H]2CCCC[C@H]2O)cc1 | 2.85 |

Give reported logD value for "C#CCN1C(=O)[C@H]2CC[C@@](C)(C1=O)C2(C)C" 2.28

Give reported logD value for "Cc1onc(-c2c(F)cccc2Cl)c1C(=O)OCC(=O)N1[C@H](C)CCC[C@H]1C" 4.38

Give reported logD value for "COc1ccc2c(c1)O[C@](O)(C(F)(F)F)CC2=O" 2.79

Give reported logD value for "CS(=O)(=O)N(CC(=O)N1CCc2ccccc2C1)c1ccc(OCc2ccccc2)cc1" 4.91

Give reported logD value for "Cc1ccc(N2C(=O)c3ccccc3N[C@H]2c2cccc([N+](=O)[O-])c2)cc1" 4.18

====

# experimental.setup: pH 5.0
# key: entry, value: logD
Number, no unit, nothing else.

Worked examples, 5 compounds total:
| smiles.string | logD |
| --- | --- |
| COc1ccc([C@@H]2CC(=O)N(c3sc4c(c3C#N)CCCC4)C3=C2C(=O)CCC3)c(OC)c1 | 4.55 |
| COc1ccc(C(=O)/C=C/C=C(Cl)Cl)cc1 | 4.4 |
| COc1cc2c(cc1OC)[C@@H](COc1ccc(F)cc1)N(C(=O)/C=C/c1ccccc1)CC2 | 5.45 |
| C[C@@H](Oc1ccccc1)C(=O)Nc1ccc(OC(F)(F)F)cc1 | 4.77 |
| CC1(C)[C@H](C(=O)N2CCOCC2)CC[C@]1(C)C(=O)N1CCOCC1 | 2.46 |

Give reported logD value for "COc1ccccc1/C=N/n1c(C)cc(C)c(C#N)c1=O" 3.08

====

# method.description: method code SF, from DOI: 10.1016/j.ejps.2012.10.019, PMID: 23131797
# experimental.setup: pH 5.0
Entries are sorted into classes by logD as follows: c1: < 3; c2: ≥ 3 and < 4; c3: ≥ 4

Answered cases to consult:
| compound | class |
| --- | --- |
| O=C(OCC(=O)N(C1CCCCC1)C1CCCCC1)c1ccc(Cl)nc1 | c3 |
| CCCC(=O)N1CC2(C)CN(C(=O)CCC)CC(C)(C1)C2 | c1 |
| COc1cc(C(=O)Nc2ccccc2C(C)(C)C)cc(OC)c1OC | c2 |
| CCCCC(=O)NC1C2CC3CC(C2)CC1C3 (stereo not drawn) | c2 |
| CSc1nc2c(C#N)c(SC)nn2c(-c2ccc(Cl)cc2)c1C#N | c3 |
| Cc1ccc(NC(=O)c2ccc(S(=O)(=O)N3CCOCC3)cc2)c(C(=O)c2ccccc2)c1 | c3 |
| COc1cc(C(=O)c2ccc(F)cc2)cc(C(=O)c2ccc(F)cc2)c1 | c3 |
| COc1ccc(-c2nnc(SCc3cc(=O)oc4ccc5ccccc5c34)n2N)cc1 | c3 |
| Cc1cc(=O)oc2cc(OC(C)C)ccc12 | c2 |
| COc1cccc(-c2cn3c4c(=O)n(C)c(=O)n(C)c4nc3n2-c2cccc(C)c2)c1 | c3 |

Hey, which category is "COc1ccc(C)cc1-n1nnnc1SCC(=O)Nc1cc(C(N)=O)cc(C(N)=O)c1" in, do you know? c3

Hey, which category is "Cc1ccc(-n2c(=O)c3cc4c(=O)n(-c5ccc(C)c(C)c5)c(=O)c4cc3c2=O)cc1C" in, do you know? c3

Hey, which category is "COC(=O)c1ccc(-n2c(C)cc(C(=O)COc3cccc(-n4cnnn4)c3)c2C)cc1" in, do you know? c3

Hey, which category is CC(NS(C)(=O)=O)c1ccccc1 (stereo not drawn) in, do you know? c1

====

# method.description: method code SF, from DOI: 10.1016/j.ejps.2012.10.019, PMID: 23131797
# experimental.setup: pH 6.5
property.label: logD

Worked examples, 5 compounds total:
| compound | result |
| --- | --- |
| O=C(CSc1nnc2c3ccccc3n(Cc3ccccc3)c2n1)OCN1C(=O)c2ccccc2C1=O | 4.51 |
| O=C(CSc1nc2ccccc2c(=O)n1-c1ccc(Cl)cc1)NC1CCCCC1 | 4.92 |
| C=CCNC(=O)CSc1nc(C(F)F)cc(-c2cn(C)nc2C)c1C#N | 3.74 |
| O=C(COc1nnc(SCC(=O)c2ccc3c(c2)OCCO3)n1C1Cc2ccccc2C1)c1ccc(F)cc1 | 5.47 |
| CC(=O)N1CC(=O)N(CC(=O)N(Cc2ccccc2)c2nc(-c3ccccc3)cs2)C1=S | 4.43 |

Give reported logD value for "N#CCOC(=O)c1ccccc1SCC(=O)N1CCCC1" 2.57

Give reported logD value for CC1CCC2(CC1)N=C(c1ccccc1)C(=O)N2CC(=O)Nc1ccc2c(c1)OCCO2 (centres undefined) 5.07

Give reported logD value for "Cc1c(C)c(C)c(CSc2nnc(CC#N)n2C)c(C)c1C" 4.14

Give reported logD value for "CS(=O)(=O)N(CC(=O)Nc1c(F)cccc1F)c1cc(Cl)c(Cl)cc1Cl" 4.34

Give reported logD value for N#CC1=C(N)Oc2c(oc(CO)cc2=O)C1c1ccccc1OCc1ccccc1Cl (centres undefined) 4.34

Give reported logD value for "CCOc1ccc(CC(=O)C2=C(N3CCCC3)CCCC2=O)cc1OCC" 3.3

Give reported logD value for O=C(CC1Nc2ccccc2NC1=O)Nc1ccccc1NC(=O)CC1Nc2ccccc2NC1=O (centres undefined) 3.42

Give reported logD value for "CC(=O)Nc1nc2cc3sc(NC(C)=O)nc3cc2s1" 3.13

Give reported logD value for "N#Cc1nc(N2CCCC2)nc(N(c2ccccc2)c2ccccc2)n1" 5.38

Give reported logD value for "CN1C(=CC=CC(=O)C(F)(F)F)C(C)(C)c2ccccc21" 4.41

Give reported logD value for "CC(C)(C)c1cc(C(F)(F)F)nc(SCCNC(=O)C2CCCCC2)n1" 5.77

Give reported logD value for "CCCn1c(SCc2cc(=O)n3cc(Br)ccc3n2)nnc1-c1cccc(C)c1" 4.43

Give reported logD value for "COc1cc(C(=O)COC(=O)CCCOc2ccc(Cl)cc2Cl)cc(OC)c1OC" 5.59

Give reported logD value for "O=C(c1cccc([N+](=O)[O-])c1)N(Cc1ccccc1F)N1C(=O)c2ccccc2C1=O" 4.47

====

# key: entry, value: logD
# method.description: method code SF, from DOI: 10.1016/j.ejps.2012.10.019, PMID: 23131797
# experimental.setup: pH 6.5

Worked examples, 8 compounds total:
| smiles.string | logD |
| --- | --- |
| O=C(Nc1ccc(N2CCN(C(=O)c3ccco3)CC2)c(Cl)c1)c1c(F)c(F)c(F)c(F)c1F | 5.85 |
| COCCn1c(C)cc(C(=O)CSc2ncnc3sc(C)c(C)c23)c1C | 4.59 |
| COc1cc(C=O)ccc1OS(=O)(=O)c1ccc(F)c(F)c1 | 3.68 |
| N#CC(=Cc1ccc2c(c1)OCO2)C(=O)NCc1cccc(CNC(=O)C(C#N)=Cc2ccc3c(c2)OCO3)c1 | 4.92 |
| COC(=O)c1cccc(NC(=O)c2cc(C(=O)Nc3cccc(C(=O)OC)c3)cc(N3C(=O)c4ccccc4C3=O)c2)c1 | 6.09 |
| CCN(CC)C(=O)c1sc(NC(=O)c2cc(OC)cc(OC)c2)c(C(=O)OC)c1C | 5.47 |
| COC(=O)c1c(NC(NC(=O)c2cccnc2)(C(F)(F)F)C(F)(F)F)sc2c1CCCCC2 | 5.75 |
| COc1ccccc1N1C(=O)c2ccc(C(=O)Nc3ccc(-c4nnc(-c5ccccc5)o4)cc3)cc2C1=O | 6.17 |

API: the following record is the query input.
Give reported logD value for "COc1ccc(-c2nnc(N)s2)cc1OC" 2.34

====

# experimental.setup: pH 10.0
property.label: logD

Worked examples, 6 compounds total:
| smiles.string | logD |
| --- | --- |
| COc1ccc(/N=C/c2ccc(/C=N/c3ccc(OC)cc3)cc2)cc1 | 5.24 |
| CC(=O)/N=c1/sc2nc3ccccc3nc2n1N(C(C)=O)C(C)=O | 1.1 |
| CCC[C@@H](C)NC(=O)COc1ncnc2sc3c(c12)CC[C@@H](C)C3 | 4.55 |
| CCOCc1c(C)cc(C)c([C@@H]2C(C#N)=C(N)Oc3[nH]nc(C)c32)c1C | 4.09 |
| Cc1ccc(Cl)c(OCc2ccc(-c3nc4c5c[nH]nc5ncn4n3)o2)c1 | 4.4 |
| CC(C)(C)C(=O)[C@H]1[C@H](c2ccsc2)C(C#N)(C#N)[C@H]2C=Cc3ccccc3N12 | 3.37 |

Give reported logD value for "CC[C@@H](SC1=Nc2ccccc2C2=N[C@@H](Cc3ccccc3)C(=O)N12)C(=O)N1CCOCC1" 3.95
